metric_name: melting point

>>> print(df.to_string())
                               entry_smiles  reported_measurement
0  COc1cccc(OCC(=O)NCC(=O)Nc2ccc(OC)cc2C)c1         115 to 116 °C

What does the record list as melting point for O=C(CNS(=O)(=O)Cc1ccccc1)Nc1ccc(Cl)cc1 ?
200 to 201 °C

Recorded melting point of O=C(/C=C/c1ccc(F)cc1)NC(=S)NNC(=O)c1cccs1 , please.
217 to 218 °C

Fill blank: measured melting point of the molecule O=C(/C=C/c1c(Cl)cc(Cl)cc1Cl)NC(=S)NNC(=O)Cc1cccs1 is ____.
219 to 220 °C

I'd like to know its melting point. The molecule in question is COc1ccc(NC(=O)CNC(=O)COc2ccc(Br)cc2)c(C)c1
159 to 160 °C

Data origin: patent US9216954B2
